Recorded values, source paper PMC7013346.

# assayExplanation: Abiotic in vitro digestion (salivary, gastric, duodenal steps) of affron® tablets, HPLC-PAD/MS quantification
# Type: in vitro ADME
# statedConditions: after salivary step, 5 min, pH 6.9, 37°C, α-amylase; mean ± SD
Marks after values point to notes of the source that are not given here.
outcomeMeasure: Bioactive molecule content, digested sample, salivary

compound	result
CC1=C(C=O)C(C)(C)CC=C1	0.03 ± 0.00^a %, dry basis
CC(/C=C/C=C(\C)C(=O)O[C@@H]1O[C@H](CO[C@@H]2O[C@H](CO)[C@@H](O)[C@H](O)[C@H]2O)[C@@H](O)[C@H](O)[C@H]1O)=C\C=C\C=C(C)\C=C\C=C(/C)C(=O)O[C@@H]1O[C@H](CO[C@@H]2O[C@H](CO)[C@@H](O)[C@H](O)[C@H]2O)[C@@H](O)[C@H](O)[C@H]1O (relative stereo) [t-crocin-4, trans-crocin-4]	1.11 ± 0.43^b %, dry basis
CC(/C=C/C=C(\C)C(=O)O)=C\C=C\C=C(C)\C=C\C=C(/C)C(=O)O	0.02 ± 0.01^a %, dry basis

Let us examine a further case.
Task item: Give the reported value of Bioactive molecule content, digested sample, salivary for this record: CC1=C(C=O)C(C)(C)CC(O[C@@H]2O[C@H](CO)[C@@H](O)[C@H](O)[C@H]2O)C1 (stereo partly shown)
Reply: 3.14 ± 0.11^c %, dry basis
